Task for the reader: assign each of the following compounds its reported inhibition at 20 µM.
- TGT: Rho-A (Homo sapiens, UniProt P61586)
- PROTOCOL_SUMMARY: Ras GTP binding domain inhibition assay (labeled-GTP competition, cell-free)
- Set-up: made in house
- CONDITION: without SOS, read-out: Rho-A: % inh.

Example compounds with recorded inhibition at 20 µM:
| COMPOUND | READOUT | OBS_VALUE |
| --- | --- | --- |
| Oc1nc(-c2nccn2CCOCC(F)(F)F)nc2c(-c3ccccn3)csc12 [Compound 81] | inhibition at 20 µM | 76 to 100% |
| COc1cccc(Nc2nc(-c3nccn3C)nc3sc(-c4ccn(C(C)C)n4)c(C)c23)n1.Cl [Compound 65, hydrochloride salt] | inhibition at 20 µM | 51 to 75% |
| COC1CCCN(c2nc(-c3ccccn3)nc3sc(-c4ccn(C(C)C)n4)c(C)c23)C1 (racemic) [Compound 70] | inhibition at 20 µM | 51 to 75% |

Incoming: Field request: inhibition at 20 µM | item: COc1ccc2cnc(-c3nc(O)c4scc(-c5ccccn5)c4n3)n2c1 [Compound 86]
Outgoing: 51 to 75%

###

- TGT: Rac-1 (Homo sapiens, UniProt P63000)
- PROTOCOL_SUMMARY: Ras GTP binding domain inhibition assay (labeled-GTP competition, cell-free)
- Design: made in house
- CONDITION: without SOS, read-out: Rac-1: % inh.
READOUT: inhibition at 20 µM

| COMPOUND | READOUT | OBS_VALUE |
| --- | --- | --- |
| CC(C)NC(=O)c1nc(O)c2scc(-c3ccccn3)c2n1 | inhibition at 20 µM | 26 to 50% |
| CO[C@H]1CC[C@@H](Nc2nc(C(=O)N3CCCC3)nc3sccc23)C1 (racemic) | inhibition at 20 µM | 0% |
| Cc1cnc(-c2nc(O)c3scc(-c4ccccn4)c3n2)s1 | inhibition at 20 µM | 76 to 100% |

# context switch: different compound, same inhibition at 20 µM
Incoming: Field request: inhibition at 20 µM | item: COCC1CCN(c2nc(-c3nccn3C)nc3sc(-c4ccn(C(C)C)n4)c(C(F)(F)F)c23)C1 (racemic)
Outgoing: 1 to 25%

###

Task for the reader: assign each of the following molecules its reported inhibition at 20 µM.
- TGT: KRas wild type (Homo sapiens, UniProt P01116)
- PROTOCOL_SUMMARY: Ras GTP binding domain inhibition assay (labeled-GTP competition, cell-free)
- Parameters: made in house
- CONDITION: with SOS, read-out: KRas wild type + SOS: % inh.

Example molecules with recorded inhibition at 20 µM:
| MOLECULE | inhibition at 20 µM |
| --- | --- |
| COCCNC(=O)c1nc(N[C@@H]2CC[C@H](OC)C2)c2ccsc2n1 (racemic) | 0% |
| CO[C@H]1CC[C@@H](Nc2nc(-c3nccn3C)nc3sccc23)C1 (racemic) | 76 to 100% |
| COCC1CN(c2nc(-c3nccn3C)nc3sc(-c4ccn(C(C)C)n4)c(C)c23)CCO1 (racemic) | 76 to 100% |
| Cc1c(-c2ccn(C(C)C)n2)sc2nc(-c3nccn3C)nc(NCCc3ncc[nH]3)c12 | 51 to 75% |
| COc1ccnc(Nc2nc(-c3nccn3C)nc3sc(-c4ccn(C(C)C)n4)c(C)c23)n1 | 76 to 100% |
| COc1cccn2c(-c3nc(O)c4scc(-c5ccccn5)c4n3)ncc12 | 1 to 25% |
| Cc1c(-c2ccn(C(C)C)n2)sc2nc(-c3nccn3C)nc(NCCC3CCC(=O)N3)c12 (racemic) | 76 to 100% |
| CO[C@H]1CC[C@@H](Nc2nc(-c3nccn3C)nc3sc(-c4cc[nH]n4)c(-c4ccccc4)c23)C1 (racemic) | 1 to 25% |

// each molecule listed below needs its inhibition at 20 µM
1. Cc1c(-c2ccn(C(C)C)n2)sc2nc(-c3nccn3C)nc(NCc3n[nH]c(=O)n3C)c12
2. COC1CCCN(c2nc(-c3nccn3C)nc3sc(-c4ccn(C(C)C)n4)c(C(F)(F)F)c23)C1 (racemic)
3. CO[C@H]1C[C@@H](Nc2nc(-c3nccn3C)nc3sc(-c4ccn(C(C)C)n4)c(C)c23)C[C@H]1OC
4. COCCn1ccnc1-c1nc(N[C@@H]2CC[C@H](OC)C2)c2ccsc2n1 (racemic)
5. Oc1nc(-c2nccn2CCOCC(F)(F)F)nc2c(-c3ccccn3)csc12
6. COCCn1ccnc1-c1nc(N[C@H]2C[C@@H](OC)C2)c2c(-c3ccccc3)c(-c3ccn(C)n3)sc2n1

Outgoing:
51 to 75%
51 to 75%
76 to 100%
76 to 100%
76 to 100%
76 to 100%

// each molecule listed below needs its inhibition at 20 µM
1. COCC1COCCN1c1nc(-c2nccn2C)nc2sc(-c3ccn(C(C)C)n3)c(C)c12 (racemic)
2. Cc1c(-c2ccn(C(C)C)n2)sc2nc(-c3nccn3C)nc(NCc3ncc[nH]3)c12
3. Oc1nc(-c2cccnc2)nc2c(-c3ccccn3)csc12
4. Cc1c(-c2ccn(C(C)C)n2)sc2nc(-c3nccn3C)nc(N3CCC(COC(C)C)C3)c12 (racemic)
5. CO[C@H]1CN(c2nc(-c3nccn3C)nc3sc(-c4ccn(C(C)C)n4)c(C)c23)C[C@H]1OC

Outgoing:
["51 to 75%", "26 to 50%", "0%", "51 to 75%", "51 to 75%"]

// each molecule listed below needs its inhibition at 20 µM
1. Oc1nc(-c2ccc3[nH]ncc3n2)nc2c(-c3ccccn3)csc12
2. Oc1nc(-c2nccn2CCOCc2ccccc2)nc2c(-c3ccccn3)csc12
3. CO[C@H]1CC[C@@H](Nc2nc(C(N)=O)nc3sccc23)C1 (racemic)
4. COCCCn1ccnc1-c1nc(O)c2scc(-c3ccccn3)c2n1
5. COC1CCN(c2nc(-c3nccn3C)nc3sc(-c4ccn(C(C)C)n4)c(C)c23)C1 (racemic)

Outgoing:
1: 0%; 2: 26 to 50%; 3: 1 to 25%; 4: 51 to 75%; 5: 76 to 100%

// each molecule listed below needs its inhibition at 20 µM
1. COC1CCCN(c2nc(-c3ccccn3)nc3sc(-c4ccn(C(C)C)n4)c(C)c23)C1 (racemic)
2. CO[C@H]1CC[C@@H](Nc2nc(C(=O)Nc3ccccn3)nc3sccc23)C1 (racemic)
3. COCCn1ccnc1-c1nc(N[C@H]2C[C@@H](OC)C2)c2ccsc2n1

Outgoing:
26 to 50%
0%
76 to 100%
